Source: PubChem BioAssay AID1745844

test system: rodent lifetime carcinogenesis bioassay, tumor incidence TD50; experiment: carcinogenic potency in animals, long-term in vivo studies, CPDB compilation (AID 1745844); settings: rat; strain F344/DuCrj; males; in feed; site: small intestine; lesion: adenocarcinoma; dosed 104 weeks; study length 104 weeks
PROPERTY_MEASURED: TD50

INSERT INTO measurements (smiles_input, property_measured, observed_result) VALUES
  ('Nc1ccc2nc3ccccn3c2n1', 'TD50', '45.1 mg/kg/day');

====

test system: rodent lifetime carcinogenesis bioassay, tumor incidence TD50; test: carcinogenic potency in animals, long-term in vivo studies, CPDB compilation (AID 1745844); settings: rat; strain Fischer 344; females; by gavage; site: large intestine; lesion: polypoid adenoma; dosed 103 weeks; study length 106 weeks
PROPERTY_MEASURED: TD50 (mg/kg/day)

INSERT INTO results (smiles_input, observed_result) VALUES
  ('BrC(Br)Br', 632);
